melting point listing for selected compounds.

Example entries and their recorded answers appear below.
Compound: COc1cccc([C@H]2O[C@H](CC(=O)Nc3cc(OC(C)C)c4oc(C(=O)O)cc4c3)C(=O)N(CC(C)(C)CO)c3ccc(Cl)cc32)c1OC [Example 152]
melting point: 188.6 to 189.7 °C
--
Compound: COc1ccc(C(=O)O)cc1NC(=O)C[C@H]1O[C@H](c2cccc(OC)c2OC)c2cc(Cl)ccc2N(CC(C)(C)CO)C1=O [Example 102]
melting point: 171 to 173 °C
--
Compound: COc1cccc([C@H]2O[C@H](CC(=O)NCc3ccoc3C(=O)O)C(=O)N(CC(C)(C)CO)c3ccc(Cl)cc32)c1OC [Example 30]
melting point: 125 to 128 °C
--
Compound: COc1cccc([C@H]2O[C@H](CC(=O)Nc3ccc(C(=O)O)cc3C)C(=O)N(CC(C)(C)CO)c3ccc(Cl)cc32)c1OC [Example 48]
melting point: 275 to 276 °C

Qu. I would be grateful if you could share the reported melting point for COc1cccc([C@H]2O[C@H](CC(=O)Nc3cc(C(=O)O)ccc3F)C(=O)N(CC(C)(C)COC(C)=O)c3ccc(Cl)cc32)c1OC [Example 107] .
Ans. 146 to 149 °C

Qu. I would be grateful if you could share the reported melting point for COc1cccc([C@H]2O[C@H](CC(=O)Nc3cccc(CCC(=O)O)c3)C(=O)N(CC(C)(C)C)c3ccc(Cl)cc32)c1OC [Example 60] .
Ans. 172 to 173 °C

Data credit: patent US20030078251A1
